- Test system: human lung (L132)
- PROTOCOL DETAILS: MTT cytotoxicity assay, human lung (L132)
- Assay type: cell-based
- CONDITION DESCRIPTION: 72 hours
API: label(entry) gives true if the entry's ED50 Lung L 132 is strictly smaller than 4 µg/mL; on equality or larger values it gives false.

1) C=C(C)C1CCC2(C(=O)O)CCC3(C)C(CCC4C5(C)CCC(OC(=O)Cc6cc(OC)ccc6OC)C(C)(C)C5CCC43C)C12 (centres unmarked) [Derivative 1108]: false
2) CC(C)C1CCC2(C(=O)O)CCC3(C)C(CCC4C5(C)CCC(NNc6ccccc6)C(C)(C)C5CCC43C)C12 (centres unmarked) [Derivative 878]: true
3) CC(C)C1CCC2(C(=O)OC(=O)C34CCC(C(C)C)C3C3CCC5C6(C)CC(Br)C(=O)C(C)(C)C6CCC5(C)C3(C)CC4)CCC3(C)C(CCC4C5(C)CC(Br)C(=O)C(C)(C)C5CCC43C)C12 (centres unmarked) [Derivative 1163]: false
4) CC(C)C1CCC2(C(=O)O)CCC3(C)C(CCC4C5(C)CCC(NC(=O)CCl)C(C)(C)C5CCC43C)C12 (centres unmarked) [Derivative 1022]: false
5) CC(C)C1CCC2(C(=O)OC3CCC4(C)C(CCC5(C)C4CCC4C6C(C(C)C)CCC6(C(=O)O)CCC45C)C3(C)C)CCC3(C)C(CCC4C5(C)CC(Br)C(=O)C(C)(C)C5CCC43C)C12 (centres unmarked) [Derivative 1161]: true

IN: Quick check: ED50 Lung L 132 of COC(=O)COC(=O)C12CCC(C(C)C)C1C1CCC3C4(C)CCC(NC(C)=O)C(C)(C)C4CCC3(C)C1(C)CC2 (centres unmarked) [Derivative 1025] under 4 µg/mL?
OUT: true

IN: Quick check: ED50 Lung L 132 of C=CC(=O)OC(=O)C12CCC(C(=C)C)C1C1CCC3C4(C)CCC(O)C(C)(C)C4CCC3(C)C1(C)CC2 (centres unmarked) [Derivative 1101] under 4 µg/mL?
OUT: true

IN: Quick check: ED50 Lung L 132 of CC(C)C1CCC2(C(=O)O)CCC3(C)C(CCC4C5(C)CCC(=NNC(=O)c6ccccc6)C(C)(C)C5CCC43C)C12 (centres unmarked) [Derivative 807] under 4 µg/mL?
OUT: true

IN: Quick check: ED50 Lung L 132 of C=C(C)C1CCC2(C(=O)O)CCC3(C)C(CCC4C5(C)CCC(OC(=O)c6cc(F)cc(F)c6)C(C)(C)C5CCC43C)C12 (centres unmarked) [Derivative 935] under 4 µg/mL?
OUT: true

IN: Quick check: ED50 Lung L 132 of C=C(C)C1CCC2(C(=O)O)CCC3(C)C(CCC4C5(C)CCC(OC(=O)c6ccc(CCCCCCC)cc6)C(C)(C)C5CCC43C)C12 (centres unmarked) [Derivative 1138] under 4 µg/mL?
OUT: false

IN: Quick check: ED50 Lung L 132 of CC(C)C1CCC2(C(=O)O)CCC3(C)C(CCC4C5(C)CCC(N=Cc6ccc(F)cc6F)C(C)(C)C5CCC43C)C12 (centres unmarked) [Derivative 1065] under 4 µg/mL?
OUT: true

IN: Quick check: ED50 Lung L 132 of CC(C)C1CCC2(C(=O)O)CCC3(C)C(CCC4C5(C)CCC(=NNc6ccc(F)cc6)C(C)(C)C5CCC43C)C12 (centres unmarked) [Derivative 829] under 4 µg/mL?
OUT: false
